Source listed as ChEMBL document CHEMBL1130819.

- System: L1210
- ASSAY_OVERVIEW: Antitumor activity was evaluated against L1210 cell line
- Assay type: functional, cell-based
- RUN_PARAMETERS: Mus musculus
Consider the following molecules; for each one, report its pIC50.
Quick note: pIC50 means taking -log10 of the concentration in moles per liter.

Return pIC50 measured with L1210 given this molecule: Nc1nc(Cl)c2nnn([C@H]3CCC[C@H]3CO)c2n1 4.15

Return pIC50 measured with L1210 given this molecule: Nc1nc(N)c2ncn([C@H]3CCC[C@H]3CO)c2n1 3.95

Return pIC50 measured with L1210 given this molecule: Nc1nc(O)c2nnn([C@H]3CCC[C@H]3CO)c2n1 4.10

Return pIC50 measured with L1210 given this molecule: Nc1nc(N)c2nnn([C@H]3CCC[C@H]3CO)c2n1 4.11

Return pIC50 measured with L1210 given this molecule: Nc1nc(Cl)c2ncn([C@H]3CCC[C@H]3CO)c2n1 4.15
